test: qHTS assay to identify small molecule antagonists of the retinoid-related orphan receptor gamma (ROR-gamma) signaling pathway - cell viability counter screen (AID 1159520); settings: Tet-on RORgamma CHO cells viability, ATP luminescence, 16 h; series mostly up to 92.4 µM; further: on the % scale 0 is the no-effect control and ±100 the full control effect; nearly all actives have a fitted effect of over 50% in size
Inconclusive results are not listed. Active and inactive are the calls of the source. The call rests on the fitted dose curve; in most records, active means well fitted cell-killing curve with a large enough effect in the repeat runs; inconclusive means weak or mixed curves, or effect the other way; inactive means no such curve, though single readings can be large or run the other way.
Reply using exactly one outcome from 1 = active, 0 = inactive

CCOP(=S)(OCC)SCSc1cc(Cl)ccc1Cl	0

Switching to the query record.
Asked: // param item: Clc1ccc2ccccc2c1 ; yields the recorded call
Given back: 0

* * *

target: Cytochrome P450 2C9 (Homo sapiens) (UniProt P11712); test: Cytochrome P450 Family 2 Subfamily C Member 9 (CYP2C9) small molecule antagonists: luciferase reporter qHTS assay (AID 1671198); conditions: P450-Glo CYP2C9 enzyme assay, luciferin luminescence; series mostly up to 115 µM; further: nearly all actives have a fitted effect of over 50% in size; further: potency means the concentration at half of the fitted maximal effect
Sequence (P11712 whole entry, looked up): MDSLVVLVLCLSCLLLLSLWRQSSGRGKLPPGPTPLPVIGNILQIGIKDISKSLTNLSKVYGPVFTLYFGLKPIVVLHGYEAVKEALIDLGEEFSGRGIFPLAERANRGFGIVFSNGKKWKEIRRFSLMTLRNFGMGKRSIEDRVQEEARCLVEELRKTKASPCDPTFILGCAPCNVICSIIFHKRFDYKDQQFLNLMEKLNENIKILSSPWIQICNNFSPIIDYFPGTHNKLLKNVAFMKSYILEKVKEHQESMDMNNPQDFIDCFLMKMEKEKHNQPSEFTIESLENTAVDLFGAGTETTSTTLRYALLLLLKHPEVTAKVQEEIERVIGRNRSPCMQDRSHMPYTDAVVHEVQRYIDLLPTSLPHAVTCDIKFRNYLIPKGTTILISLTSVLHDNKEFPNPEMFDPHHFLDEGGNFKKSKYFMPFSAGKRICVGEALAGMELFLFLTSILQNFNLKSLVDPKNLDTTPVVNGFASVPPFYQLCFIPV
Records with an inconclusive call do not appear. Active and inactive are the calls of the source. Calls come from the whole dose curve; as a rule, active = well fitted inhibition curve with a large enough effect in the repeat runs; inconclusive = weak or mixed curves; inactive = no such curve, though single readings can be large or run the other way.
Property label: Potency

Here is how some molecules turned out for Potency.
CCOP(=S)(OCC)SCSc1cc(Cl)ccc1Cl	inactive
C[N+]1(CCC(C(N)=O)(c2ccccc2)c2ccccc2)CCCCC1	inactive
COc1cc(CC#N)cc(OC)c1OC	inactive
O=C1NC(=O)C(=O)C(=O)N1	inactive
COc1ccccc1N1CCNCC1	inactive
FC(Cl)(Cl)C(F)(Cl)Cl	inactive
CCOP(=S)(OCC)Oc1ccc(S(C)=O)cc1 (configuration not stated)	0.252 µM (active)
O=C(O)C(Cl)(Cl)Br	inactive

Asked: In one line, give reported Potency of the entry O=CC=O .
Given back: inactive

Asked: Consider the molecule COc1ccc2c(c1OC)C(=O)O[C@H]2[C@@H]1c2cc3c(cc2CCN1C)OCO3 . State its measured Potency.
Given back: 5.49 µM (active)

Asked: Quote Potency reported for O=C(N[C@H]1CN2CCC1CC2)c1ccc2c(c1)OCCO2 please.
Given back: inactive

Asked: Supply Potency value. Item: CCCC(C)(COC(N)=O)COC(=O)NC(C)C (configuration not stated)
Given back: inactive

Asked: # return recorded Potency for input O=C(O)C(F)(F)C(F)(F)C(F)(F)C(F)(F)C(F)(F)C(F)(F)C(F)(F)C(F)(F)F
Given back: 1.78 µM (active)

Asked: Fill in reported Potency for this entry: C1CS1
Given back: inactive

Asked: Annotate the molecule CC(C)CCON=O with its measured Potency.
Given back: inactive

Asked: Determine its reported Potency: ClCc1ccccc1Cl
Given back: inactive

Asked: Supply Potency value. Item: C=CC(=O)NC(C)(C)CC(C)=O
Given back: inactive

Asked: Item Nc1ccc2c(c1)Cc1ccccc1-2 : provide Potency
Given back: 15.8 µM (active)

Asked: Could you please provide reported Potency for Cc1cnc(C2=NC(C)(C(C)C)C(=O)N2)c(C(=O)O)c1 (configuration not stated) ? Thanks!
Given back: inactive

Asked: Return value of Potency for input Cc1ccc2c(C)cccc2c1 , no commentary.
Given back: inactive

Asked: Give the measured Potency for CC(Cc1ccccc1)NCc1ccccc1Cl (configuration not stated)
Given back: inactive

Asked: Please supply the value of reported Potency for the item CCC1(CC)C(=O)NC(=O)NC1=O
Given back: inactive

Asked: Identify measured Potency corresponding to C=CCN1C[C@H](C)N([C@H](c2ccc(C(=O)N(CC)CC)cc2)c2cccc(OC)c2)C[C@H]1C
Given back: inactive

Asked: Determine its reported Potency: CCCCC(CC)CO[N+](=O)[O-] (configuration not stated)
Given back: inactive

Asked: For the molecule C[N+](C)(C)CC1CO1 (configuration not stated) , give its measured Potency value.
Given back: inactive

* * *

assay: qHTS assay for identifying genotoxic compounds that show differential cytotoxicity against isogenic chicken DT40 cell lines with known DNA damage response pathways - wild type cell line (AID 743012); conditions: DT40 wild type chicken cells viability, CellTiter-Glo, 40 h; series mostly up to 68.4 µM; further: nearly all actives have a fitted effect of over 60% in size
Results filed as inconclusive are left out. Calls of active or inactive are those of the source. The call rests on the fitted dose curve; in most records, active means well fitted cell-killing curve with a large enough effect in the repeat runs; inconclusive means weak or mixed curves, or effect the other way; inactive means no such curve, though single readings can be large or run the other way.
Bench note: report the call from true (1) (active), false (0) (inactive)

As a guide, the following entries are already answered.
CC(Cl)C(=O)O (centres undefined)	false (0)
Cc1ccc2c(C)cccc2c1	false (0)
Cc1nc2ccccc2c(=O)n1-c1ccccc1Cl	true (1)
O=C(Cc1ccccc1)c1ccccc1	false (0)
CCCC(C)(COC(N)=O)COC(=O)NC(C)C (centres undefined)	false (0)
O=P(OCC(Br)CBr)(OCC(Br)CBr)OCC(Br)CBr (centres undefined)	true (1)

Asked: Status in this test for C=CCc1ccccc1O ?
Given back: false (0)

Asked: What did the test return for N#CC(C#N)=Cc1ccc(O)c(O)c1 ?
Given back: true (1)

Asked: State the result this test recorded for CC(C)(C)OOC(C)(C)CCC(C)(C)OOC(C)(C)C .
Given back: false (0)

* * *

assay: qHTS assay to identify small molecule antagonists of the retinoic acid receptor (RAR) signaling pathway (AID 1159552; further: nearly all actives have a fitted effect of over 50% in size); details: C3RL4 RARE luciferase reporter, retinol-stimulated, 6 h; series mostly up to 92.4 µM
Results filed as inconclusive are left out. Active and inactive are the calls of the source. The call rests on the fitted dose curve; in most records, active means well fitted inhibition curve with a large enough effect in the repeat runs; inconclusive means weak or mixed curves, or effect the other way; inactive means no such curve, though single readings can be large or run the other way.
The reply should name one outcome from active, inactive

// known answers, use as guide
c1ccc2c(c1)-c1cccc3cccc-2c13	inactive
CC(C)c1ccc(OP(=O)(Oc2ccc(C(C)C)cc2)Oc2ccc(C(C)C)cc2)cc1	active
O=C(Cc1ccccc1)OCCc1ccccc1	inactive
C[C@H]1O[C@H](OC2[C@@H](O)[C@@H](O)C(O)[C@H](O)[C@H]2O)[C@@H](N)C[C@@H]1N=C(N)C(=O)O (stereo not given in full)	inactive
C[C@]12CC[C@H]3[C@@H](CCC4=CC(=O)CC[C@@H]43)[C@@H]1CC[C@@H]2OC(=O)CCc1ccccc1	inactive
CCCN(CCOc1c(Cl)cc(Cl)cc1Cl)C(=O)n1ccnc1	inactive
O=C(O)C(Cl)(Cl)Br	inactive
COc1cc(CC(C)N)c(OC)cc1Br (stereo not given)	inactive

Asked: Hey, what did the test say about C#C[C@]1(O)CC[C@H]2[C@@H]3CCC4=CC(=O)CCC4=C3C=C[C@@]21CC ?
Given back: active

Asked: Test call, this compound: Clc1ccc2ccccc2c1
Given back: inactive

* * *

biological target: Vitamin D3 receptor (Homo sapiens); assay: qHTS assay to identify small molecule antagonists of the vitamin D receptor (VDR) signaling pathway (AID 743223); settings: VDR-UAS-bla HEK293T, beta-lactamase FRET ratio, 16 h; series mostly up to 61 µM; further: on the % scale 0 is the no-effect control and ±100 the full control effect
Records with an inconclusive call do not appear. Calls of active or inactive are those of the source. Calls follow the shape of the dose curve; as a rule, active = well fitted inhibition curve with a large enough effect in the signal ratio in the repeat runs (not every such curve was filed as active); inconclusive = weak or mixed curves, or effect the other way; inactive = no such curve, though single readings can be large or run the other way; the % refers to the signal ratio.
Property label: outcome

CCC1(CC)C(=O)NC(=O)NC1=O	inactive
Cc1cnc(C2=NC(C)(C(C)C)C(=O)N2)c(C(=O)O)c1 (stereo not drawn)	inactive
CCC(C)(C)O	inactive

* * *

experiment: qHTS assay to identify small molecule HDAC inhibitors (AID 1259364); details: HCT-116 HDAC-Glo I/II luminescence, 2 h; series mostly up to 92.4 µM;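 further: wild-type HCT-116 cells with endogenous class I/II HDAC activity; top concentration of the series differs between compounds; on the % scale 0 is the no-effect control and ±100 the full control effect; nearly all actives have a fitted effect of over 45% in size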
Inconclusive results are not listed. Activity calls are given as the source filed them. Calls follow the shape of the dose curve; as a rule, active = well fitted inhibition curve with a large enough effect in the repeat runs; inconclusive = weak or mixed curves; inactive = flat fitted curve, though single readings scatter.
Give your call using only these classes: active, inactive

C=CCc1ccccc1O	inactive
O=S(=O)(Cl)Cl	inactive
Cc1cnc(C2=NC(C)(C(C)C)C(=O)N2)c(C(=O)O)c1 (configuration not stated)	inactive
CC(Cc1ccccc1)NCc1ccccc1Cl (configuration not stated)	inactive
CCc1ccccc1N	inactive
CC(O)CN1CCN(CC(=O)[O-])CCN(CC(=O)[O-])CCN(CC(=O)[O-])CC1.[Gd+3] (configuration not stated)	inactive
c1ccc2c(c1)sc1ccccc12	inactive
CCCCOC(=O)CCC(=O)OCCCC	inactive

Asked: # outcome recorded in this test, key = SCc1ccccc1
Given back: inactive

Asked: What is the recorded call for this compound in the test? CCN(C(C)=O)c1cccc(-c2ccnc3c(C#N)cnn23)c1
Given back: inactive

Asked: Outcome logged for CC(C)(C)N(NC(=O)c1ccc(Cl)cc1)C(=O)c1ccccc1 in this assay:
Given back: inactive

Asked: // outcome(item) with item = COc1ccc(C(=O)c2c(C)n(CCN3CCOCC3)c3ccccc23)cc1
Given back: inactive

Asked: Write down the call the test reported for this compound. Item: O=C(O)C(Cl)(Cl)Br
Given back: inactive

* * *

assay: qHTS assay to identify small molecule antagonists of the progesterone receptor (PR) signaling pathway - cell viability counter screen (AID 1346798); conditions: PR-UAS-bla HEK293T viability, CellTiter-Glo luminescence, 16 h; series mostly up to 92.4 µM;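 further: HEK293T PR-UAS-bla cells stimulated with the agonist R5020; on the % scale 0 is the no-effect control and ±100 the full control effect; nearly all actives have a fitted effect of over 50% in size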
Results filed as inconclusive are left out. Active and inactive are the calls of the source. Calls come from the whole dose curve; as a rule, active = well fitted cell-killing curve with a large enough effect in the repeat runs; inconclusive = weak or mixed curves, or effect the other way; inactive = no such curve, though single readings can be large or run the other way.
Write down the outcome that applies. Available outcomes: T = active, F = inactive

Field: example entries. Status: answers known.
NNCCO	F
O=C(Cl)OCCOCCOC(=O)Cl	F

Asked: Tell me the recorded outcome of this test for NC(=O)CF .
Given back: F

Asked: Could you kindly confirm the outcome this assay logged for CCOP(=S)(OCC)Oc1ccc(S(C)=O)cc1 (configuration not stated) ?
Given back: F

Asked: Write down the call the test reported for this compound. Item: CCCN(CCC)C(=O)Cc1c(-c2ccc(Cl)cc2)nc2ccc(Cl)cn12
Given back: F

Asked: What did the test return for CCCSP(=S)(OCC)Oc1ccc(SC)cc1 (configuration not stated) ?
Given back: F
